// provenance: patent EP4678629A1

Assay: Encapsulation efficiency of the lipid nanoparticle (eGFP mRNA) by Ribogreen method
Type: physicochemical
Conditions: LNP encapsulating eGFP mRNA, ionizable lipid/DOPE/cholesterol/DMG-PEG2000 50/10/48.25/1.25 mol%, N/P 12

compound	Encapsulation rate, % [%]
CCCCCCCCCCCOC(=O)CN(CCO)CCCN(CC(=O)OCCCCCCCCCCC)CC(=O)OCCCCCCCCCCC	85.54
CCCCCCCCCCCCCOC(=O)CN(CCCCO)CCCN(CC(=O)OCCCCCCCCCCCCC)CC(=O)OCCCCCCCCCCCCC	99.86
CCCCCCCCCCCOC(=O)CCCCCCCCCN(CCO)CCCN(CCCCCCCCCC(=O)OCCCCCCCCCCC)CCCCCCCCCC(=O)OCCCCCCCCCCC [Example 14]	97.23
CCCCCCCCCCCOC(=O)CCCN(CCCCO)CCCN(CCCC(=O)OCCCCCCCCCCC)CCCC(=O)OCCCCCCCCCCC	94.12
CCCCCCCCCCCCCOC(=O)CCCN(CCO)CCCN(CCCC(=O)OCCCCCCCCCCCCC)CCCC(=O)OCCCCCCCCCCCCC	99.32
CCCCCCCCCCCCCOC(=O)CCCCCCN(CCO)CCCN(CCCCCCC(=O)OCCCCCCCCCCCCC)CCCCCCC(=O)OCCCCCCCCCCCCC	98.96
CCCCCCCCCCCOC(=O)CCCCCCCN(CCCO)CCCN(CCCCCCCC(=O)OCCCCCCCCCCC)CCCCCCCC(=O)OCCCCCCCCCCC	88.82
CCCCCCCCCCCOC(=O)CCCCN(CCCCO)CCCN(CCCCC(=O)OCCCCCCCCCCC)CCCCC(=O)OCCCCCCCCCCC	87.08
CCCCC/C=C\C/C=C\CCCCCCCCOC(=O)CCCN(CCO)CCCN(CCCC(=O)OCCCCCCCC/C=C\C/C=C\CCCCC)CCCC(=O)OCCCCCCCC/C=C\C/C=C\CCCCC	99.14
CCCCCCCCCCCOC(=O)CCCCCCCCCCCN(CCO)CCCN(CCCCCCCCCCCC(=O)OCCCCCCCCCCC)CCCCCCCCCCCC(=O)OCCCCCCCCCCC	92.58
CCCCCCCCCCCCCCOC(=O)CCCCCCN(CCO)CCCN(CCCCCCC(=O)OCCCCCCCCCCCCCC)CCCCCCC(=O)OCCCCCCCCCCCCCC	99.68
CCCCCCCCCCCCCCOC(=O)CCCCCCCN(CCO)CCCN(CCCCCCCC(=O)OCCCCCCCCCCCCCC)CCCCCCCC(=O)OCCCCCCCCCCCCCC	91.15
CCCCCCCCCCCCOC(=O)CCCCCN(CCO)CCCN(CCCCCC(=O)OCCCCCCCCCCCC)CCCCCC(=O)OCCCCCCCCCCCC	99.38
CCCCCCCCCCCCOC(=O)CCCCCCN(CCCO)CCCN(CCCCCCC(=O)OCCCCCCCCCCCC)CCCCCCC(=O)OCCCCCCCCCCCC	99.52
CCCCCCCCCCCCOC(=O)CCCCCN(CCCCO)CCCN(CCCCCC(=O)OCCCCCCCCCCCC)CCCCCC(=O)OCCCCCCCCCCCC	99.86
CCCCCCCCCCCOC(=O)CCN(CCCCO)CCCN(CCC(=O)OCCCCCCCCCCC)CCC(=O)OCCCCCCCCCCC	85.47
CCCCCC/C=C\COC(=O)CCCCCCCCCN(CCO)CCCN(CCCCCCCCCC(=O)OC/C=C\CCCCCC)CCCCCCCCCC(=O)OC/C=C\CCCCCC [Example 92]	76.22
CCC/C=C\COC(=O)CCCCCCCN(CCO)CCCN(CCCCCCCC(=O)OC/C=C\CCC)CCCCCCCC(=O)OC/C=C\CCC	90.04
